What TGI was measured for each of the following?
tested on: UO-31 renal; assay: NCI tumour cell line growth inhibition, 48 h

stdin: So what's the measured TGI for this one? O=C(O)C1C(Br)(c2ccccc2)C1(Br)c1ccccc1 (centres undefined)
stdout: 47.2 µM

stdin: Check O=C1/C(=C/c2cccc([N+](=O)[O-])c2)COc2ccc(Br)cc21 too.
stdout: > 100 µM

stdin: Check CC1CCCC(CC(=O)O)(CC(=O)O)C1 (centres undefined) too.
stdout: > 100 µM

stdin: Check O=C1c2cccnc2-c2nccc3c2c1nc1cc(Br)ccc13 too.
stdout: 0.568 µM

stdin: Check O=C1CSC(/C(=N/Nc2ccccc2)c2nc3ccccc3[nH]2)=N1 too.
stdout: > 100 µM

stdin: Check C1C[OH+]CC[OH+]CC[OH+]CC[OH+]CC[OH+]1.[Cl-].[V] too.
stdout: > 100 µM

stdin: Check CCNC(=O)Nc1cccc(NC(=O)NCC)n1 too.
stdout: > 100 µM

stdin: Check CCn1c(-c2ccc(OC(C)=O)cc2)c(C)c2cc(OC(C)=O)ccc21 too.
stdout: 47.9 µM

stdin: Check O=c1oc2ccc([N+](=O)[O-])cc2c(Nc2ccc3c(c2)Oc2ccccc2O3)c1[N+](=O)[O-] too.
stdout: > 100 µM

stdin: Check COc1cccc(/C=N/n2c(C)n[nH]c2=O)c1 too.
stdout: > 100 µM

stdin: Check CCSc1nc(SCC)c2cn[nH]c2n1 too.
stdout: > 100 µM

stdin: Check CC1=C(C(=O)Nc2ccc(F)c(Cl)c2)C(c2cccc(O)c2)NC(=O)N1 (centres undefined) too.
stdout: > 100 µM

stdin: Check CCN(CC)c1ccc(N=Nc2ccc(-c3nc4ccc[n+](C)c4s3)cc2)cc1 too.
stdout: 46 µM

stdin: Check Nc1ccc(S(=O)(=O)Nc2nccs2)cc1 too.
stdout: > 100 µM

stdin: Check C=CC/C=C/C/C=C/CCCCCCCc1cccc(O)c1C(=O)O too.
stdout: 79.1 µM

stdin: Check O=S(=O)(Nc1cc(Sc2cccc3cccnc23)c(O)c2ccccc12)c1ccccc1 too.
stdout: 4.76 µM

stdin: Check CC1=C(CO)C(=O)O[C@@H]([C@@H](CO)[C@H]2CCC3C4C[C@@H](O)[C@@]5(O)CC=CC(=O)[C@]5(C)C4CC[C@@]32C)C1 (some centres undefined) too.
stdout: 57.1 µM

stdin: Check O=NN(CCCl)C(=O)NC1CCC(O)CC1 (centres undefined) too.
stdout: > 100 µM

stdin: Check CC1=CC(C/C(C)=C/COc2ccc3ccc(=O)oc3c2)OC1=O (centres undefined) too.
stdout: > 100 µM

stdin: Check Cc1cc(S(=O)(=O)Nc2nc3cc(-c4ccc(Cl)cc4)sc3c(=O)n2N)c(S)cc1Cl too.
stdout: > 100 µM

stdin: Check CCOC(=O)C1C2CCC1CC(=NNc1ccc([N+](=O)[O-])cc1[N+](=O)[O-])C2 (centres undefined) too.
stdout: > 50 µM

stdin: Check O=c1c2cc(Br)cc(Br)c2nc(CCCl)n1CCO too.
stdout: > 100 µM

stdin: Check CC(C(O)Cc1ccccc1)N(C)N=Nc1ccc([N+](=O)[O-])cc1 (centres undefined) too.
stdout: 31.8 µM

stdin: Check O=c1cccc(C#CC#CC2=CCCCC2)o1 too.
stdout: 11 µM

stdin: Check Br[C](Br)(Br)[Hg][c]1ccccc1 too.
stdout: 34.5 µM

stdin: Check Cc1ccc(S(=O)(=O)NC(=O)N[C@@H](Cc2cnc[nH]2)C(=O)O)cc1 too.
stdout: > 100 µM

stdin: Check COc1cc(C(=O)c2cc(C)c3[nH]c4ccc(C)cc4c3c2C)cc(OC)c1OC too.
stdout: > 100 µM

stdin: Check CC(=O)NC1c2ccccc2C(C)(C)C12CCC1(CC2)OCCO1 (centres undefined) too.
stdout: > 100 µM

stdin: Check CCCSc1nc(COC(=O)NC)c(COC(=O)NC)n1C too.
stdout: > 100 µM

stdin: Check CCOC(=O)NC(Nc1cccc(C(F)(F)F)c1)(C(F)(F)F)C(F)(F)F too.
stdout: > 100 µM

stdin: Check NNC(=O)CSc1nc2ccccc2c(=O)n1N too.
stdout: > 100 µM

stdin: Check COc1ccc(CC2NCCc3cc(OC)c(OC)cc32)cc1Br (centres undefined) too.
stdout: > 100 µM

stdin: Check C=C1CN2CC(=C)CN(C1)CS(=O)(=O)N1CC(=C)CN(CC(=C)C1)S(=O)(=O)N1CC(=C)CN(CC(=C)C1)S(=O)(=O)C2 too.
stdout: > 100 µM

stdin: Check C=C1C(=O)C=C[C@]2(C)CC[C@H]3C(=C)C(=O)O[C@@H]3[C@@H]12 too.
stdout: 9 µM

stdin: Check CC(C)NC(=O)OCCN=c1c2ccccc2ccc2ccccc12 too.
stdout: 64.4 µM

stdin: Check O=C1CCC(O)=C1N=Nc1ccccc1 too.
stdout: > 100 µM

stdin: Check Cc1cc(C(C)(C)CC(C)(C)C)ccc1OCCOCC[N+](C)(C)Cc1ccccc1 too.
stdout: 6.65 µM

stdin: Check C=CCOc1ccc(C2C(C(=O)OCC)C(=O)CC(C)(O)C2C(=O)OCC)cc1OC (centres undefined) too.
stdout: > 100 µM

stdin: Check COc1ccc2cc(C(C)C(=O)N3CCOC3=O)ccc2c1 (centres undefined) too.
stdout: > 100 µM

stdin: Check CCCCCCCCCCCCCCCCCCOc1ccccc1CC(=O)OCC[N+]1(C)CCCC1 too.
stdout: 15 µM

stdin: Check CSc1sc2ccccc2[s+]1 too.
stdout: > 100 µM

stdin: Check OCc1ccc(C2CC(c3ccco3)=NN2c2ccccc2)o1 (centres undefined) too.
stdout: > 100 µM

stdin: Check COc1ccc(C2COc3cc(O)c(O)cc3C2)cc1 (centres undefined) too.
stdout: 279 µM

stdin: Check C[C@]12CC[C@@H]3c4cc(OCC(F)(F)F)c(O)cc4/C(=N/O)C[C@H]3[C@@H]1CC[C@@H]2O too.
stdout: 20.8 µM
